system: KM12; experiment: NCI tumour cell line growth inhibition, 48 h
Active and inactive are the calls of the source. Cut-off read from the data, not from the text of the source: active = GI50 up to about 1.1 µM and inactive = higher.
For each record, write down the corresponding GI50.

[in] Name the recorded GI50 for "COc1ccc(/C=C/c2cc(OC)c(OCc3ccccc3)c(OC)c2)cc1" .
[out] > 100 µM (inactive)

[in] Record request: GI50 value, item "Cc1ccc(-n2c3nc(=O)n(C)c(=O)c-3nc3ccccc32)c(C)c1"
[out] 8.18 µM (inactive)

[in] Any idea what its GI50 is? The compound is "Cc1cc2c(cc1C)[n+]([O-])c(C(=O)/C=C/c1ccc3c(c1)OCO3)c(C)[n+]2[O-]"
[out] > 100 µM (inactive)

[in] Name the reported GI50 value associated with the compound "CC(=O)Oc1cccc2c1C(=O)c1c(OC(C)=O)cc(C)cc1C2=O"
[out] 39.5 µM (inactive)

// switching to the query compound
[in] Could you share which GI50 value was measured for "CC(C)[Si](OC1=CCC[C@H]2NC(=O)[C@@H](Cc3ccccc3)[C@@]12C)(C(C)C)C(C)C" ?
[out] 3.84 µM (inactive)

Where do the numbers come from? From ChEMBL document CHEMBL1201862.
